melting point values, listed per item

Known results for compounds:
{"columns": ["COMPOUND", "melting point"],
 "data": [
  ["CN(Cc1cccc2c1C(=O)N(C1CCC(=O)NC1=O)C2=O)C(=O)OC(C)(C)C (stereo not shown) [Example 5.1]", "138 to 140 °C"],
  ["Cc1ccc(NC(=O)N(C)Cc2cccc3c2C(=O)N(C2CCC(=O)NC2=O)C3=O)cc1C (stereo not shown) [Example 5.40]", "202 to 204 °C"],
  ["CN(Cc1cccc2c1C(=O)N(C1CCC(=O)NC1=O)C2=O)C(=O)NC(C)(C)C (stereo not shown) [Example 5.36]", "188 to 190 °C"],
  ["Cc1cccc(NC(=O)N(C)Cc2cccc3c2CN(C2CCC(=O)NC2=O)C3=O)c1 (stereo not shown) [Example 5.29]", "208 to 210 °C"]
]}

# evaluate next
Recorded melting point for CN(Cc1cccc2c1CN(C1CCC(=O)NC1=O)C2=O)C(=O)Nc1cccc2ccccc12 (stereo not shown) [Example 5.41] , please? 292 to 294 °C

* * *

READOUT: melting point

Recorded melting point, per entry:
{"columns": ["MOLECULE", "RESULT"],
 "data": [
  ["CN(Cc1cccc2c1CN(C1CCC(=O)NC1=O)C2=O)C(=O)Nc1cc(Cl)cc(Cl)c1 (centres unmarked)", "285 to 287 °C"],
  ["CN(Cc1cccc2c1CN(C1CCC(=O)NC1=O)C2=O)C(=O)Nc1cccc(Cl)c1 (centres unmarked)", "193 to 195 °C"],
  ["CN(Cc1cccc2c1CN(C1CCC(=O)NC1=O)C2=O)C(=O)Nc1cccc(C(F)(F)F)c1 (centres unmarked)", "198 to 200 °C"],
  ["CN(Cc1cccc2c1C(=O)N(C1CCC(=O)NC1=O)C2=O)C(=O)Nc1cccc(Cl)c1 (centres unmarked)", "193 to 195 °C"]
]}

Proceeding to the next molecule to report its melting point.
GET /values?readout=melting point&item= CCCNC(=O)N(C)Cc1cccc2c1CN(C1CCC(=O)NC1=O)C2=O (centres unmarked) 220 to 222 °C
